Target: T1, anti-CD28 scFv (disulfide)
T1 construct: also called Anti-CD28 scFv (VH - linker 1 - VL) Disulfide mutation: G44C, G235C
T1 sequence (scFv, as listed by the source): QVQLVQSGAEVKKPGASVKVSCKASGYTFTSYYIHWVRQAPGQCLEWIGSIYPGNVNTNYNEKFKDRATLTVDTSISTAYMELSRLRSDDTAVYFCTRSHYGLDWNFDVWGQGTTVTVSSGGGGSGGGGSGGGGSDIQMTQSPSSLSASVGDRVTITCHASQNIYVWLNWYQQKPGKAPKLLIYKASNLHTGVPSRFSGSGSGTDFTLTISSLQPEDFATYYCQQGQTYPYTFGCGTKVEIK
Experiment: competition ELISA: peptide titrated (0-100 µM) with 0.3 nM anti-CD28 scFv (disulfide), binding to plate-bound CD28
Where no end group is shown, it is not given here.
measured-parameter: log10(IC50) (log10 of the value in µM)

>  <binder>
SCAAGASYAWPACL [Peptide-105]

>  <log10(IC50)>
1.76

$$$$
>  <binder>
YCAGHAWAYINKCL (Alanine scan variant of Peptide-87 (Q8A)) [Peptide-111]

>  <log10(IC50)>
1.02

$$$$
>  <binder>
YCAGHAWQYINKCA (Alanine scan variant of Peptide-87 (L14A)) [Peptide-116]

>  <log10(IC50)>
1.88

$$$$
>  <binder>
YCAGHAAQYINKCL (Alanine scan variant of Peptide-87 (W7A)) [Peptide-110]

>  <log10(IC50)>
0.28

$$$$
>  <binder>
YCEGHLPEYIQKCL (not fully specified; cysteine pairing not given here; also: biotinylated, site not given here) [Peptide-134]

>  <log10(IC50)>
-0.32

$$$$
>  <binder>
YCEGHLPEYRNKCL (cysteine pairing not given here; also: biotinylated, site not given here) [Peptide-132]

>  <log10(IC50)>
-0.11

$$$$
